Listed here are compounds together with their documented ED50.
tested on: Cricetinae gen. sp.; assay: Pregnancy-terminating activity in hamster when administered sc; assay type: functional; conditions: Cricetinae gen. sp., sc; read-out: ED50
Kindly provide the numeric value in mg/kg only, without the unit symbol.

Solved entries (count: 5):
structureSmiles | quantitativeResult
Cc1ccccc1-c1n[nH]c(-c2ccccc2)n1 | 0.3
COc1cccc(-c2n[nH]c(-c3ccc(C)cc3C)n2)c1 | 0.04
COc1cccc(-c2nc(-c3ccc(OC)cc3C)n[nH]2)c1 | 0.2
COc1cccc(-c2n[nH]c(-c3cc(OC)ccc3C)n2)c1 | 1
Cc1ccc(-c2n[nH]c(-c3ccccc3)n2)c(C)c1 | 0.2

Q) Fill blank: measured ED50 of the compound `COc1cccc(-c2n[nH]c(-c3ccccc3C=O)n2)c1` is ____.
A) 0.1

Q) ED50 lookup needed for `Cc1ccc(-c2n[nH]c(-c3ccccc3C)n2)cc1` , thanks.
A) 20

Q) // returns reported ED50 for input `Cc1ccccc1-c1n[nH]c(-c2cccc(C(F)(F)F)c2)n1`
A) 0.6
